Tested on: 519858-162-T-J1-PDC complex spheroid viability;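 also: spheroids exposed to compounds for 7 days; 100% = DMSO vehicle control viability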
Assay: Anticancer human tumor 519858-162-T-J1-PDC patient-derived colon adenocarcinoma cell line growth inhibition [GQUAD]
Settings: second compound 3.16 µM; first compound 0.1 µM; stronger effect = lower value
Criterion: viability, T/C strictly under 50%. Met: 1.0. Not met: 0.0.

is_below(viability, T/C, 50%) for Cc1cccc(N(C)C(=O)C2C(O)CCN2c2nc(C)cc(C(F)(F)F)c2C#N)c1 (stereo not given) + CN(C)c1ccc(Nc2c3ccc(NC(=O)CCN4CCCC4)cc3nc3cc(NC(=O)CCN4CCCC4)ccc23)cc1 ?
0.0

is_below(viability, T/C, 50%) for COc1cccc2c1C(=O)c1c(O)c3c(c(O)c1C2=O)CC(O)(C(=O)CO)CC3OC1CC(N)C(O)C(C)O1 (stereo not given) + Cc1cnc(CNC(=O)c2c(=O)c3ccc(N4CCCN(C)CC4)nc3n3c2sc2ccccc23)cn1 ?
0.0

is_below(viability, T/C, 50%) for CC1COCCN1c1cc(-c2ccnn2C)c2ccnc(-c3ccn[nH]3)c2n1 (stereo not given) + Cc1cnc(CNC(=O)c2c(=O)c3ccc(N4CCCN(C)CC4)nc3n3c2sc2ccccc23)cn1 ?
1.0

is_below(viability, T/C, 50%) for CC(=O)O[C@H]1C(=O)[C@@]2(C)[C@H]([C@H](OC(=O)c3ccccc3)[C@]3(O)C[C@H](OC(=O)[C@H](O)[C@@H](NC(=O)c4ccccc4)c4ccccc4)C(C)=C1C3(C)C)[C@]1(OC(C)=O)CO[C@@H]1C[C@@H]2O + CN(C)c1ccc(Nc2c3ccc(NC(=O)CCN4CCCC4)cc3nc3cc(NC(=O)CCN4CCCC4)ccc23)cc1 ?
0.0
